Protein target, amino acids: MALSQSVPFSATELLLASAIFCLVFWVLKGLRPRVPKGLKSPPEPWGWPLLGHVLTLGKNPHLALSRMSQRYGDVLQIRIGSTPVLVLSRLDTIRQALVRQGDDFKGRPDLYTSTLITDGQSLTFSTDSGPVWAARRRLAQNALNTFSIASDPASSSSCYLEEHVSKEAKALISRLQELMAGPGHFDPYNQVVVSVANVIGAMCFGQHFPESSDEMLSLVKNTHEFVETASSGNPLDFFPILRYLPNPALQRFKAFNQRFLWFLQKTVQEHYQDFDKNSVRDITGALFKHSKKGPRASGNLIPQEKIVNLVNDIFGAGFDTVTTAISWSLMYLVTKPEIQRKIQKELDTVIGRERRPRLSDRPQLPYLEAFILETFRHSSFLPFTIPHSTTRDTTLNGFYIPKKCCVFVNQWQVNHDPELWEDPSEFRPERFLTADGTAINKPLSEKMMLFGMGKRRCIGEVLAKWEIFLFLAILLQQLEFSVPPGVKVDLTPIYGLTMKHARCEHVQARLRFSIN
readout kind: IC50

Q) Answer with the recorded IC50 of O=C(NNC(=O)c1sc2cc(Cl)ccc2c1Cl)c1ccc([N+](=O)[O-])o1 only.
A) > 50 µM

----------
test: Kinetic solubility of the compound in aqueous buffer at pH 7.4 measured after 4 hrs by LC-MS/MS analysis; assay type: physicochemical; details: read-out: Kinetic_solubility
In this section, each of the compounds is paired with its reported solubility kinetic at 4 h.
Reply with just the number (in µM).

Example entries begin here.
>  <test smiles>
O=C(NNC(=O)c1cc2ccccc2s1)c1ccc([N+](=O)[O-])o1

>  <solubility kinetic at 4 h / µM>
103

$$$$
>  <test smiles>
O=C(NNC(=O)c1sc2cc(Cl)ccc2c1Cl)c1ccc([N+](=O)[O-])o1

>  <solubility kinetic at 4 h / µM>
0.35

$$$$

Q) Give the value of solubility kinetic at 4 h reported for the following: O=C(NNC(=O)c1cc2cc(C(F)(F)F)cc(Cl)c2s1)c1ccc([N+](=O)[O-])o1
A) 0.06

Q) Please indicate solubility kinetic at 4 h recorded for O=C(NNC(=O)c1cc2cc(Cl)cc(Cl)c2s1)c1ccc([N+](=O)[O-])o1
A) 0.55

----------
molecular target: Cytochrome P450 3A4 (Homo sapiens, UniProt P08684)
Sequence (P08684 whole entry): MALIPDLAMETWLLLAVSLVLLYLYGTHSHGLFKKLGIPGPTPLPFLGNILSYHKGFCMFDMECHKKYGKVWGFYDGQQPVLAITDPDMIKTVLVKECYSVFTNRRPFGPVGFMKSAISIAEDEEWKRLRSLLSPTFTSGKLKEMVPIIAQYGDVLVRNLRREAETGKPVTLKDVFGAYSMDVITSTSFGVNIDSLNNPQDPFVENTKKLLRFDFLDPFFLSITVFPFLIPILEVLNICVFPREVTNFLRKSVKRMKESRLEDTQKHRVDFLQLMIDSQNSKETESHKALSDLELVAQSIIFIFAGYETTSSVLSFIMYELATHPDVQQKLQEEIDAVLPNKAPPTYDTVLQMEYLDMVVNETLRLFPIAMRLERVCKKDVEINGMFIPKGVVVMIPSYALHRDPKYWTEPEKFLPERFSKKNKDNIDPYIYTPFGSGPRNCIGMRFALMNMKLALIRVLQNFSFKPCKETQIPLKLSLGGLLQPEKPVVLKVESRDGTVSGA
pIC50: −log10 of the molar value.
readout kind: pIC50

Q) Please report the measured pIC50 for O=C(NNC(=O)c1sc2cc(Cl)ccc2c1Cl)c1ccc([N+](=O)[O-])o1
A) < 4.30

----------
# reported t1/2; entries follow
assay: Metabolic stability in mouse liver microsomes assessed as half life by LC-MS/MS analysis; assay type: ADME, Microsome
// return numeric value only (unit: min, not printed)

>  <test smiles>
O=C(NNC(=O)c1sc2cc(Cl)ccc2c1Cl)c1ccc([N+](=O)[O-])o1

>  <display unit>
min

>  <t1/2>
16.6

$$$$
>  <test smiles>
O=C(NNC(=O)c1cc2ccccc2s1)c1ccc([N+](=O)[O-])o1

>  <display unit>
min

>  <t1/2>
3.3

$$$$
>  <test smiles>
O=C(NNC(=O)c1cc2cc(C(F)(F)F)cc(Cl)c2s1)c1ccc([N+](=O)[O-])o1

>  <display unit>
min

>  <t1/2>
57.8

$$$$

Pending compound:
Q) Fill in reported t1/2 for this entry: O=C(NNC(=O)c1cc2cc(Cl)cc(Cl)c2s1)c1ccc([N+](=O)[O-])o1
A) 13.3
